Please go through the items and note down their AC50.
target: UniProt:P41595; assay type: functional, cell-based
Sequence (P41595 whole entry): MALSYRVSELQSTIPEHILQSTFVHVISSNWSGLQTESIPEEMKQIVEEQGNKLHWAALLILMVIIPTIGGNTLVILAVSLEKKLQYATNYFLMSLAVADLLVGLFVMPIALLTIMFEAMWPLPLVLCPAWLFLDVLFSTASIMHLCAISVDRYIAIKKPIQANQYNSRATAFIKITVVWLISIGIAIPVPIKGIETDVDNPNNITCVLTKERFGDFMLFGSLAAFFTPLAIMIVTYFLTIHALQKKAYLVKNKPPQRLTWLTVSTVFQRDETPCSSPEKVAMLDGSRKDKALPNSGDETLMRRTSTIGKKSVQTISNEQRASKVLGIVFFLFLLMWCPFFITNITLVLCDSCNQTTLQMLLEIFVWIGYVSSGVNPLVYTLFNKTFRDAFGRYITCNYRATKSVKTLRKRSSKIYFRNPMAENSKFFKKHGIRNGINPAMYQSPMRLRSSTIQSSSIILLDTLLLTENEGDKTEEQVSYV

Fill in reported AC50 for this entry: C[C@H](Cc1ccc(O)c(O)c1)[C@@H](C)Cc1ccc(O)c(O)c1
11 µM

Fill in reported AC50 for this entry: C=C[C@@]1(C)CC(=O)[C@]2(O)[C@@]3(C)[C@@H](O)CCC(C)(C)[C@@H]3[C@H](O)[C@H](OC(C)=O)[C@@]2(C)O1
> 30 µM

Fill in reported AC50 for this entry: COc1cc(N)c(Cl)cc1C(=O)NC1CCN(Cc2ccccc2)CC1 [CLEBOPRIDE]
0.98 µM

Fill in reported AC50 for this entry: C[C@H]1c2cccc(O)c2C(=O)C2=C(O)[C@]3(O)C(=O)C(C(N)=O)=C(O)[C@@H](N(C)C)[C@@H]3[C@@H](O)[C@@H]21
> 10 µM

Fill in reported AC50 for this entry: CC12CC3CC(C)(C1)CC(N)(C3)C2 [MEMANTINE]
> 10 µM

Fill in reported AC50 for this entry: CCCC(CCC)C(N)=O [VALPROMIDE]
> 10 µM

Fill in reported AC50 for this entry: CN(CC1(C)CCCO1)S(=O)(=O)c1ccc(Cl)c(S(N)(=O)=O)c1 (centres undefined) [MEFRUSIDE]
> 30 µM

Fill in reported AC50 for this entry: N[C@@H](CC(=O)N1CCn2c(nnc2C(F)(F)F)C1)Cc1cc(F)c(F)cc1F
> 30 µM

Fill in reported AC50 for this entry: Cc1cccc(N2CC(CO)OC2=O)c1 (centres undefined)
> 30 µM

Fill in reported AC50 for this entry: CCN(CC)C(=O)Nc1ccc(OCC(O)CNC(C)(C)C)c(C(C)=O)c1 (centres undefined)
> 30 µM

Fill in reported AC50 for this entry: CC(C(=O)O)c1ccc(-c2ccccc2)c(F)c1 (centres undefined)
> 10 µM

Fill in reported AC50 for this entry: NC(=O)CN1CCCC1=O
> 30 µM

Fill in reported AC50 for this entry: CCC(COC(=O)c1cc(OC)c(OC)c(OC)c1)(c1ccccc1)N(C)C (centres undefined)
> 30 µM

Fill in reported AC50 for this entry: COc1ccc2nc3cc(Cl)ccc3c(Nc3cc(CN4CCCC4)c(O)c(CN4CCCC4)c3)c2n1
> 30 µM

Fill in reported AC50 for this entry: CC(=O)N[C@@H](CS)C(=O)O
> 30 µM

Fill in reported AC50 for this entry: CN(C)CCc1c[nH]c2ccc(Cn3cncn3)cc12
> 10 µM

Fill in reported AC50 for this entry: C#CCOc1ccc(N)cc1C(=O)NCCCC [PARSALMIDE]
> 30 µM

Fill in reported AC50 for this entry: Nc1cc(-c2ccncc2)c[nH]c1=O
> 10 µM

Fill in reported AC50 for this entry: CCN1CCN(Cc2ccc(Nc3ncc(F)c(-c4cc(F)c5nc(C)n(C(C)C)c5c4)n3)nc2)CC1
19 µM

Hey, just so you know, these numbers are from ChEMBL document CHEMBL5291721.
